tested_target: Bcl-xL (Homo sapiens, UniProt Q07817)
Sequence (Q07817 whole entry): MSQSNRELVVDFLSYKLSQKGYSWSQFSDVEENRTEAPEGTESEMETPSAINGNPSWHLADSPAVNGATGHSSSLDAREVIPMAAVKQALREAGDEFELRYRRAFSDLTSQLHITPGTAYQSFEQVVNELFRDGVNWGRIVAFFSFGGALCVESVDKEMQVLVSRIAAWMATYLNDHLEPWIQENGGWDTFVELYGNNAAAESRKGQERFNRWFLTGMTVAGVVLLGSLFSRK
experiment: Fluorescence polarization-based
Type: binding
stated_conditions: read-out: Binding Affinities Bcl-xL Ki ± SD; FP competitive binding
measure: Ki

[
  {
    "compound": "CCc1c(-c2ccc(Cl)cc2)c(-c2cccc(N3CCN(c4ccc(NS(=O)(=O)c5ccc(N[C@H](CCN(C)C)CSc6ccccc6)c([N+](=O)[O-])c5)cc4)CC3)c2)c(C(=O)O)n1C [Compound 6]",
    "measurement": "< 1 nM"
  }
]
